Value source: patent US9434711B2

# tested on: UniProt:Q1A7N1
# Sequence (Q1A7N1 1-1104): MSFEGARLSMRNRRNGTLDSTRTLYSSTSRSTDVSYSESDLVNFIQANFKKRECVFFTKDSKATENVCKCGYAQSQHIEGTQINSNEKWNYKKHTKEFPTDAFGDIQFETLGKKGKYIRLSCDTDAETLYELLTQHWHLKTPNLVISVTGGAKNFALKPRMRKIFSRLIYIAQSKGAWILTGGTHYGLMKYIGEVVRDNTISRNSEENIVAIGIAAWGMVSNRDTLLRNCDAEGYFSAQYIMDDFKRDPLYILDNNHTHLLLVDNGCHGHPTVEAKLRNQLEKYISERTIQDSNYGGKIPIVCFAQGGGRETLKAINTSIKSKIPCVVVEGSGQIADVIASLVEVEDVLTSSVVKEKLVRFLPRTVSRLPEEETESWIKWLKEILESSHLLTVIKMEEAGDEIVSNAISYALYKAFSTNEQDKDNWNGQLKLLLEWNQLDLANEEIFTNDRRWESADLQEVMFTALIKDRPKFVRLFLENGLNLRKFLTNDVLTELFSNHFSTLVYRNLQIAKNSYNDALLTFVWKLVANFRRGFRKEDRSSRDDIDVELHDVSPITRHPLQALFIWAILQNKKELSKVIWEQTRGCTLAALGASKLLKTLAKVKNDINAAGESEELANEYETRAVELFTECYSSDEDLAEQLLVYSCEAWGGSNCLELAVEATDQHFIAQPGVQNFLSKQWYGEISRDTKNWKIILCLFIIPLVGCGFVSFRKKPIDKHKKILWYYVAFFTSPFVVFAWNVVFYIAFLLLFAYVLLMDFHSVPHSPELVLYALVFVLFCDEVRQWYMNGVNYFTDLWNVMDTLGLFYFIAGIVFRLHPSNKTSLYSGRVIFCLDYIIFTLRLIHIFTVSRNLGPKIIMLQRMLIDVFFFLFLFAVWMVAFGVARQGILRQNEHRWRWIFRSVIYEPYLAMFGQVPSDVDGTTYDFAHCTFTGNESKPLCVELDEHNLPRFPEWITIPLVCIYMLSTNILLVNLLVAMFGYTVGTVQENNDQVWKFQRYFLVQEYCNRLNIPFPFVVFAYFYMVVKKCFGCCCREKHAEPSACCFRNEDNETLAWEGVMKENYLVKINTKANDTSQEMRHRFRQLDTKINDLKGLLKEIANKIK
# procedure summary: In Vitro Canine TRPM8 Functional Assay (Ca2+ fluorescence, icilin activation)
# Format: cell-based
# measurement context: HEK293 cells stably expressing canine TRPM8; icilin activation; eight-point dose-response; read-out: IC50
reported endpoint: IC50 (nM)

compound	reported endpoint	value measured
CCCS(=O)(=O)N(Cc1ccc(F)c(F)c1)c1cc2ccccc2s1 [Compound 36]	IC50	77.1
O=S(=O)(c1ccccc1)N(Cc1ccc(F)c(C(F)(F)F)c1)c1cc2ccccc2s1 [Compound 61]	IC50	52.4
CCCCN(c1cc2ccccc2s1)S(=O)(=O)c1ccc(N(C)C)cc1 [Compound 444]	IC50	122
CC(=O)c1c(N(Cc2ccc(F)c(C(F)(F)F)c2)S(=O)(=O)c2ccc(C#N)cc2)sc2ccccc12 [Compound 387]	IC50	31
O=S(=O)(c1ccccc1)N(CC(F)F)c1sc2ccccc2c1Br [Compound 242]	IC50	38.2
O=S(=O)(c1ccccc1)N(CCc1ccccc1)c1cc2ccccc2s1 [Compound 115]	IC50	79.5

[a] Cc1c(N(CC2CCCN2C(=O)OC(C)(C)C)S(=O)(=O)c2ccccc2)sc2ccccc12 (centres unmarked) [Compound 103]
[b] CCCCN(c1sc2ccccc2c1OC)S(=O)(=O)c1ccc(C(=O)OC)cc1 [Compound 422]
Query: Lab notebook, comparison: a versus b , higher IC50 goes to which? When you have decided, please share the label of that item.
Reply: a
